Target: PKR dsRBMs (Homo sapiens, UniProt P19525 9-167)
Sequence (P19525 9-167): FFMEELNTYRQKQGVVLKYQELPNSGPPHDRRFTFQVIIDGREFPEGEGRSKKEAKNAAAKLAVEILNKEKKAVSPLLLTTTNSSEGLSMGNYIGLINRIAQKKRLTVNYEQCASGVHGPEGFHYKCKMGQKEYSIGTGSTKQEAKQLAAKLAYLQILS
Experiment: FP
Conditions: protein: recombinant; tags: tag cleaved by TEV; label: 3' FAM in FP; none in ITC and SEC-MALS; hairpin, blunt 2 G-C end; bulges C5, A17, U23-C24-U25
Measure Name: Kd (nM)
Write the number in nM without appending the unit.

Q) Sample TAR2GC (WT) (structured_RNA) RNA: GGUCUCUCUGGUUAGACCAGAUCUGAGCCUGGGAGCUCUCUGGCUAACUAGGGAACC — what was its Kd?
A) 120
